System: U2OS
Protocol text: Incucyte cell viability with U2OS; also: unitless GR value; below 1 slowed growth and below 0 cell loss
Type: toxicity, cell-based
Measurement setup: human, 24 h, 10 µM, compound concentration 10 uM, replicate number 2
Simple rule here: Growth Rate less than 0.7 is True, otherwise False.

{"Molecule": "Cc1c(N2CCCC2)nc2ccc(Br)cc2c1C(=O)NC[C@H](CCC(=O)O)c1ccccc1Cl.Cl.O", "Discrete label": "False"}
{"Molecule": "CN(C)CCCn1cc(C2=C(c3c[nH]c4ccccc34)C(=O)NC2=O)c2ccccc21", "Discrete label": "False"}
{"Molecule": "Cc1cc2c(-c3ccco3)cnc(N[C@@H]3CCN(C)C[C@H]3C(=O)NC3CCCCC3)c2[nH]c1=O", "Discrete label": "False"}
{"Molecule": "CN(C1CCc2c(c3ccccc3n2CC(=O)O)C1)S(=O)(=O)c1ccc(F)cc1 (configuration not stated)", "Discrete label": "False"}
{"Molecule": "CC(C)(O)[C@H]1CC[C@H](Nc2ccc3ncc(-c4cccc(C(F)(F)F)c4)n3n2)CC1", "Discrete label": "True"}
{"Molecule": "Cl.Cl.O=[N+]([O-])c1ccc(CN2CCOCCOCCN(Cc3ccc([N+](=O)[O-])cc3)CCOCC2)cc1", "Discrete label": "False"}
{"Molecule": "CCCOc1cnc(CN/C=C2\\C(=O)NC(=O)c3ccc(I)cc32)cc1O", "Discrete label": "True"}
{"Molecule": "CC(C)(C)c1ccc(-c2coc3ccc(-c4cn[nH]c4)nc23)cc1", "Discrete label": "True"}
{"Molecule": "COC(=O)Nc1nc2c(s1)-c1c(c(-c3cccnc3)nn1-c1ccc(C3(N(C)C)CC3)cc1)CC2.Cl.Cl", "Discrete label": "True"}
{"Molecule": "CCOC(=O)c1cnn(-c2ccc(NC(=O)C(Cl)=C(Cl)Cl)cc2)c1C(F)(F)F", "Discrete label": "True"}
{"Molecule": "O=C(O)c1ccc(CN2C[C@@H]3C[C@H]2CN3Cc2ccc(Oc3ccc(-c4ncco4)cc3)cc2)cc1", "Discrete label": "False"}
{"Molecule": "CCn1ccc(Nc2ncc3c(n2)-c2c(nn(C)c2-c2ccc(-c4cnn(C)c4)cc2Cl)CC3)n1", "Discrete label": "True"}
{"Molecule": "CC[C@H](Nc1ncnc2[nH]cnc12)c1nc2cccc(F)c2c(=O)n1-c1ccccc1", "Discrete label": "False"}
{"Molecule": "CN(C)C(=O)Cn1cc(-c2nc([C@@](C)(c3ccc(-c4cnc(N)nc4)cc3)C3CC3)no2)cn1", "Discrete label": "False"}
{"Molecule": "C=CC(=O)Nc1ccc2[nH]c(=O)n(C3CCN(Cc4ccc(-c5ccc6c(c5)NC(=O)CO6)cc4)CC3)c2c1", "Discrete label": "True"}

* * *

System: HEK-293T
Protocol text: Incucyte cell viability with HEK293T; also: unitless GR value; below 1 slowed growth and below 0 cell loss
Assay type: toxicity, cell-based
Measurement setup: human, 18 h, 10 µM, compound concentration 10 uM, replicate number 1
Entries whose Growth Rate is below 0.8 take Fulfilled; entries at or above 0.8 take Not fulfilled.

{"Molecule": "COc1cc(-c2cn(C)c(=O)c3cnccc23)c(OC)cc1CN(C)C", "Discrete label": "Fulfilled"}
{"Molecule": "Cc1nsc(Nc2cnc(C(F)(F)F)cn2)c1C(=O)Nc1ccc(O[C@H]2CCCN(CC(F)(F)F)C2)nc1", "Discrete label": "Fulfilled"}
{"Molecule": "COc1cc2nc(C)nc(NC3(c4ccccc4)CC3)c2cc1OC", "Discrete label": "Not fulfilled"}
{"Molecule": "CC(C)c1cnn2c(NCc3ccccc3)cc(NCCCCCCN)nc12.Cl", "Discrete label": "Fulfilled"}
{"Molecule": "CS(=O)(=O)c1ccc(-c2cnc(N)c(C(=O)Nc3ccccc3)n2)cc1", "Discrete label": "Fulfilled"}
{"Molecule": "CN(C)C/C=C/C(=O)Nc1cccc(S(=O)(=O)N2CCC(NC(=O)c3n[nH]cc3NC(=O)c3c(Cl)cc(Cl)cc3Cl)CC2)c1", "Discrete label": "Fulfilled"}
{"Molecule": "CCN1C(=CC(C)=O)Sc2ccc(OC)cc21", "Discrete label": "Fulfilled"}
{"Molecule": "O=C(Nc1cc(C(F)(F)F)cc(C(F)(F)F)c1)c1cc(Cl)ccc1O", "Discrete label": "Fulfilled"}
{"Molecule": "C[S+]([O-])c1ccc(-c2nc(-c3cccc(I)c3)c(-c3ccncc3)[nH]2)cc1 (stereo unspecified)", "Discrete label": "Not fulfilled"}
{"Molecule": "CN(C)C/C=C/C(=O)Nc1cc2c(Nc3ccc(F)c(Cl)c3)ncnc2cc1OC[C@@H]1CCCO1", "Discrete label": "Fulfilled"}
{"Molecule": "CC(=O)c1c(C)c2cnc(Nc3ccn(C)n3)nc2n(C2CCCC2)c1=O", "Discrete label": "Not fulfilled"}
{"Molecule": "COCCNC1CCC(Nc2cc(-c3csc(NCC4(C#N)CCOCC4)n3)c(Cl)cn2)CC1 (stereo unspecified)", "Discrete label": "Fulfilled"}
{"Molecule": "O=C(O)Cc1cc(I)c(Oc2ccc(O)c(I)c2)c(I)c1", "Discrete label": "Not fulfilled"}
{"Molecule": "CN[C@@H](C)C/C=C/c1cncc(OC(C)C)c1", "Discrete label": "Fulfilled"}
{"Molecule": "CN1CCN(C(=O)c2ccc3cc2OCCOCCNc2ccn4ncc-3c4n2)CC1", "Discrete label": "Not fulfilled"}
{"Molecule": "Cc1[nH]nc(C(F)(F)F)c1Cc1sc2c(c1C(=O)N1C[C@](C)(O)CO1)c(=O)n(C)c(=O)n2C(C)C", "Discrete label": "Fulfilled"}
{"Molecule": "CCCCCCCC/C=C\\CCCCCCCC(=O)NCc1ccc(O)c(OC)c1", "Discrete label": "Fulfilled"}
{"Molecule": "Cn1cc(-n2cnc3c(NCc4nc5cc(Cl)c(Cl)cc5[nH]4)nc(N4CCOCC4)nc32)cn1", "Discrete label": "Fulfilled"}
{"Molecule": "C[S+](C)[O-] [DIMETHYL SULFOXIDE]", "Discrete label": "Not fulfilled"}
{"Molecule": "Cl.NC(=O)c1ccccc1Nc1nc(-c2ccc(N3CCOCC3)cc2)cc2ncccc12", "Discrete label": "Fulfilled"}
{"Molecule": "CC(CNS(=O)(=O)C(C)C)c1ccc(-c2ccc(C#N)cc2)cc1 (stereo unspecified)", "Discrete label": "Fulfilled"}
{"Molecule": "Cc1nc(Nc2cnn(C3CCNCC3)c2)nc2c1N(C)C(=O)c1cc3ccccc3cc1N2C", "Discrete label": "Fulfilled"}
{"Molecule": "OC(c1ccc(-c2ccc(CN3CCN(Cc4ccncc4)CC3)cc2)c(F)c1)(C(F)(F)F)C(F)(F)F", "Discrete label": "Fulfilled"}
{"Molecule": "CC[C@@H]1C(=O)N(C)c2cnc(Nc3ccc(C(=O)NC4CCN(C)CC4)cc3OC)nc2N1C1CCCC1", "Discrete label": "Fulfilled"}
{"Molecule": "CN(CCCCCCC1=C(c2cc(F)cc(F)c2)CCCc2cc(O)ccc21)CCCCS(=O)(=O)CCCC(F)(F)F", "Discrete label": "Fulfilled"}
{"Molecule": "CCOC(=O)/N=C(\\N)c1ccc(OCc2cccc(COc3ccc(C(C)(C)c4ccc(OC(=O)OCC)cc4)cc3)c2)cc1", "Discrete label": "Fulfilled"}
{"Molecule": "O=C1NC(Nc2ccccc2)=N/C1=C\\c1ccc2c(c1)OCO2", "Discrete label": "Fulfilled"}
{"Molecule": "CC(C)NC(=O)[C@H]1CCC[C@H]1Nc1nc(Nc2ccc(CN(C)C)cc2)ncc1Br.Cl", "Discrete label": "Fulfilled"}
{"Molecule": "CC1(C)CCC(CN2CCN(c3ccc(C(=O)NS(=O)(=O)c4ccc(NCC5CCOCC5)c([N+](=O)[O-])c4)c(Oc4cnc5[nH]ccc5c4)c3)CC2)=C(c2ccc(Cl)cc2)C1", "Discrete label": "Fulfilled"}
{"Molecule": "CCc1cc2c(cc1-c1cccc(S(=O)(=O)F)c1)C(C)(C)c1[nH]c3cc(C#N)ccc3c1C2=O", "Discrete label": "Not fulfilled"}
{"Molecule": "CC(C)(O)CNC(=O)N1C(=O)N(c2cccc(C(F)(F)F)c2)C2=C(C(=O)CC2)[C@H]1c1ccc(C#N)cc1", "Discrete label": "Not fulfilled"}
{"Molecule": "Cc1cc(OC2CCS(=O)(=O)CC2)cc(C)c1-c1cccc(COc2ccc(C(=O)O)c(F)c2)c1", "Discrete label": "Not fulfilled"}
{"Molecule": "CCn1cnc2c(-c3ccc(F)c(-c4ccc(S(=O)(=O)CC)cc4OC)c3)cnnc21", "Discrete label": "Fulfilled"}
{"Molecule": "Cc1cc(OC2CCS(=O)(=O)CC2)cc(C)c1-c1cccc(COc2ccc(CCC(=O)O)c(F)c2)c1", "Discrete label": "Not fulfilled"}

Every entry's value here was drawn from ChEMBL document CHEMBL5303304.
